Below, each of the binders is paired with its reported pERK EC50 value.
Study Target: T1, human β-klotho with a C-terminal FLAG tag, stably expressed in a clonal HEK-293 cell line (human, UniProt Q86Z14 1-1044)
T1 sequence: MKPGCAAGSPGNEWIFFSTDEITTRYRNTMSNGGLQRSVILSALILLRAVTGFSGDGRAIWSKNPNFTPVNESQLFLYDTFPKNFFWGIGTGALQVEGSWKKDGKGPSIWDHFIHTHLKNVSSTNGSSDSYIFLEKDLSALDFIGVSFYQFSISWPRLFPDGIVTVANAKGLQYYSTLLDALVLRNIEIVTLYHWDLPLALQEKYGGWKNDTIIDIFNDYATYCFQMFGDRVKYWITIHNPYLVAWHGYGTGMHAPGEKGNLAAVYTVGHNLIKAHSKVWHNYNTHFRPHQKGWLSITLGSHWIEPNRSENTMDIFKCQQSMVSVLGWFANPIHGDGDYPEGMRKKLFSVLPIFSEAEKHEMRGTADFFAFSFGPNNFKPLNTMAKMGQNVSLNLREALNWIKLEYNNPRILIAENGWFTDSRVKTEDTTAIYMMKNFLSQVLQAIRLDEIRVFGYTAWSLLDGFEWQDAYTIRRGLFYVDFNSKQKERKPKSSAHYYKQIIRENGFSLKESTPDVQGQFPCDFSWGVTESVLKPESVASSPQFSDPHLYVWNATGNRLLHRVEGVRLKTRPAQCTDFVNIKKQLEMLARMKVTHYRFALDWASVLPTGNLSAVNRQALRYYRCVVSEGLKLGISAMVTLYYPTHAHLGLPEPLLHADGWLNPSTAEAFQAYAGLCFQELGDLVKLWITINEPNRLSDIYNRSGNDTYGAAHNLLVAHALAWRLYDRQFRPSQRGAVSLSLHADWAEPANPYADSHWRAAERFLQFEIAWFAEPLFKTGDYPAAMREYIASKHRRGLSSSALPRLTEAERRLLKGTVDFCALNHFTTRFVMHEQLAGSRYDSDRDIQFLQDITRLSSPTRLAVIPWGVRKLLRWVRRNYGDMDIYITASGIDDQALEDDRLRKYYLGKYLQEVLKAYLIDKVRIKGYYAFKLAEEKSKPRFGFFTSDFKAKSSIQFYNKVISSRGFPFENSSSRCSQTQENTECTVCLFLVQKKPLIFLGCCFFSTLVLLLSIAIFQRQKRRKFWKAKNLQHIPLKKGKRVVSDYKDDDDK
Assay Overview: cell-based or functional assay
Just the number in nM, nothing appended.

Consider the reported pERK EC50 for these binders:
{"columns": ["Binder", "pERK EC50 / nM"],
 "data": [
  ["Compound 19 (ligand) MHPIPDSSPLLQFGGQVRQRYLYTDDAQQTEAHLEIREDGTVGGAADQSPESLLQLKALKPGVIQILGVKTSRFLCQRPDGALYGSLHFDPEACSFRELLLEDGYNVYQSEAHGLPLHLGSGPHRDPAPRGPARFLPLPGLPPAPPEPPGILAPQPPDVGSSDPLSMVEPSQGRSPSYAS", 5.1],
  ["Compound 3 (ligand) MHPIPDSSPLLQFGGQVRQRYLYTDDAQQTEAHLEIREDGTVGGAADQSPESLLQLKALKPGVIQILGVKTSRFLCQRPDGALYGSLHFDPEACSFRELLLEDGYNVYQSEAHGLPLHLPGNKSPHRDPAPRGPARFLPLPGLPPAPPEPPGILAPQPPDVGSSDPLSMVEPSQGRSPSYAS", 28]
]}

### Prompt For the binder Compound 6 (ligand) MHPIPDSSPLLQFGGQVRQRYLYTDDAQQTEAHLEIREDGTVGGAADQSPESLLQLKALKPGVIQILGVKTSRFLCQRPDGALYGSLHFDPEACSFRELLLEDGYNVYQSEAHGLPLHLPGHKSRDPAPRGPARFLPLPGLPPAPPEPPGILAPQPPDVGSSDPLSMVEPSQGRSPSYAS , what pERK EC50 is on record?
### Response 39.1

### Prompt Please do the same for Compound 2 (ligand) MHPIPDSSPLLQFGGQVRQRYLYTDDAQQTEAHLEIREDGTVGGAADQSPESLLQLKALKPGVIQILGVKTSRFLCQRPDGALYGSLHFDPEACSFRELLLEDGYNVYQSEAHGLPLHLGSGRGPARFLPLPGLPPAPPEPPGILAPQPPDVGSSDPLSMVEPSQGRSPSYAS as well.
### Response 4.6
